- Experimental target: Dual specificity protein phosphatase 6 (Homo sapiens) (UniProt Q16828)
- Sequence (Q16828 whole entry, looked up): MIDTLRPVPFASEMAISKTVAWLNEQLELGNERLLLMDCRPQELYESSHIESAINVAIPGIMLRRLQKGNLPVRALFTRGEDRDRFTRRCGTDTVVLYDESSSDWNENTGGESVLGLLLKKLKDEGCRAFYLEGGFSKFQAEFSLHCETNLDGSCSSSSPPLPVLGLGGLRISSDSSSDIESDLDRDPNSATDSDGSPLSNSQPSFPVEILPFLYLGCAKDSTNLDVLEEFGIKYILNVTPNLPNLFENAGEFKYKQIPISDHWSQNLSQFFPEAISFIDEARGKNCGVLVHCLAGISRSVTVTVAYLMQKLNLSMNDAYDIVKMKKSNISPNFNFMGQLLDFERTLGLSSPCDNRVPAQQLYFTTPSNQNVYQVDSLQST
- Assay: Primary imaging screen for DUSP6 inhibitors that restore phospho-Erk in transfected HeLa cells, chemical complementation (AID 609);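 also: phospho-Erk level distribution per well compared with pooled transfected vehicle control wells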
- Condition description: HeLa MKP-3 transfected, phospho-Erk imaging KS statistic; at 10 µM; stronger effect = higher value; cells stimulated with TPA for 15 min
Measured property: inhibition (%)
Provide only the numeric value, understood in %.

# Compound, inhibition (%)
records = [
    ("O=C(CCCN1CCC(O)(c2ccc(Cl)cc2)CC1)c1ccc(F)cc1", 10.2),
]

inhibition measured on CC(C)NCC(O)COc1ccc(CC(N)=O)cc1 (stereo not given) = -2.46

Lab note: measured inhibition of CC1CCc2cc(F)cc3c(=O)c(C(=O)O)cn1c23 (stereo not given) was 13.3

Note to self: inhibition recorded for CCC(NC(=O)Nc1nnc(C(F)(F)F)s1)(C(F)(F)F)C(F)(F)F was 18.4

# compound CC1(C)S[C@@H]2[C@H](NC(=O)[C@H](N)c3ccccc3)C(=O)N2[C@H]1C(=O)O ; its inhibition = -8.38

----------
- Assay: reduction of polyQ htt aggregates in cells – imaging, exon1htt(103Q)mCFP cells, high-content imaging, primary screen (AID 483);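 also: compound exposure lasted 3 days before fixation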
- Condition description: exon1htt(103Q)mCFP cell line, aggregate imaging, at 2 µM; stronger effect = higher value
Measured property: inhibition of aggregation (%)
Could you give me the number in %? Just the number is fine.

# Molecule, Unit of measure, inhibition of aggregation
measured = [
    ("Cc1nc(SCC#N)c2c(C)c(C)sc2n1", "%", -3.4),
    ("Cc1ccc(Cn2nnc3c(=O)n(CC(=O)NCC4CCCO4)cnc32)cc1 (stereo not drawn)", "%", -20.8),
    ("COc1ccc(CN(C(=O)c2ccccc2OC)C2CCS(=O)(=O)C2)cc1 (stereo not drawn)", "%", 23),
    ("NC(=O)c1c(NC(=O)CSc2nnc(-c3ccco3)n2-c2ccccc2)sc2c1CCC2", "%", -3.6),
    ("CN(c1ccccc1)S(=O)(=O)c1cc(C(=O)N2CCN(c3ccccn3)CC2)ccc1Cl", "%", -6.5),
]

Looking up CC(C)(C)c1ccccc1NC(=O)c1cccnc1 , I found its inhibition of aggregation recorded as 28.5

The molecule C[N+](C)(C)CCCCCCCCCC[N+](C)(C)C showed inhibition of aggregation equal to -3.9

COc1cccc(CNC(=O)C2CCN(S(=O)(=O)c3ccc(F)cc3)CC2)c1 yielded inhibition of aggregation of 5.3

Lab note: measured inhibition of aggregation of C=CCn1c(=O)[nH]c2cc(C(=O)N3CCN(c4cc(C)ccc4C)CC3)ccc2c1=O was -1.6

For reference, reported inhibition of aggregation for CCCc1cc(=O)n2[nH]cnc2n1 stands at -16

The reported inhibition of aggregation of the molecule O=C(O)CCn1c(SCc2ccccc2)nc2ccccc21 was 25

Entry COc1ccc(C(=O)Nn2c(SCC(=O)NCC3CCCO3)nc3ccccc3c2=O)cc1 (stereo not drawn) , inhibition of aggregation reported as 13.2

Measured inhibition of aggregation, O=c1c2ccccc2nnn1CSc1nc2cc(Cl)ccc2c(=O)n1Cc1ccco1 : 7.5

What the record says about COC(=O)c1c(NC(=O)C2CC=CCC2C(=O)O)sc(C(N)=O)c1C (stereo not drawn) : inhibition of aggregation is 7.8

Quick note, inhibition of aggregation for CC(C)C1N=C2c3ccccc3N=C(SCC(=O)NCCc3ccc(S(N)(=O)=O)cc3)N2C1=O (stereo not drawn) landed at 7.3

Note to self: inhibition of aggregation recorded for CN1CCN(CC(=O)Nc2ccc(Cl)cc2Cl)CC1 was 0

Short answer for COc1cc2c(cc1OC)CN(C(=O)COc1ccc(C#N)cc1)CC2 : inhibition of aggregation was 4.5

Reported inhibition of aggregation ( COc1cc(C(=O)N2c3ccccc3CC2C)cc(OC)c1OC (stereo not drawn) ) = -6.3

----------
- Assay: loss of swimming-algae plug formation – whole organism, Chlamydomonas reinhardtii, WT vs cilia-less mutant, absorbance, 96-well, primary screen (AID 463189);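 also: 0% = wild type cc124 cells in DMSO and 100% = ciliumless bld1 mutant cells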
- Condition description: Chlamydomonas reinhardtii gravitaxis, OD600 absorbance, 2 days; at 10 µM; stronger effect = higher value
Listed here are molecules together with their documented inhibition.
Just the number please, in %, no unit attached.

# Molecule, inhibition, %
records = [
    ("Nc1ncnc2c1nc(Sc1ccc(Cl)cc1)n2C1OC2COP(=O)(O)O[C@@H]2[C@@H]1O (stereo not given in full)", 9.99),
    ("CCOC(=O)C(OC(=O)c1sc(=S)n(C)c1C)C(C)=O (stereo not given)", 63.7),
    ("NCCCCCC(=O)O", 3.27),
    ("COc1ccc(CSc2nnc(C)n2N)cc1Br", 5.58),
    ("C1CCC(N=C(NC23CC4CC(CC(C4)C2)C3)N2CCOCC2)CC1", 2.95),
    ("CCCCCCCCCCCCCCCCCC(=O)OC(CC(=O)O)C[N+](C)(C)C (stereo not given)", 6.23),
    ("CC(=O)SC1CC2=CC(=O)CC[C@]2(C)C2CC[C@@]3(C)C(CC[C@@]34CCC(=O)O4)C12 (stereo not given in full)", 3.21),
    ("Nc1nc2[nH]c(=O)cnc2c(=O)[nH]1", 5.48),
]

Note to self: inhibition recorded for COCC(=O)O[C@]1(CCN(C)CCCc2nc3ccccc3[nH]2)CCc2cc(F)ccc2[C@@H]1C(C)C was 11.6

inhibition in this record for C[C@H](Cc1ccc(O)c(O)c1)[C@@H](C)Cc1ccc(O)c(O)c1 : -6.71

Reported inhibition ( CC(C)C(=O)Nc1ccc([N+](=O)[O-])c(C(F)(F)F)c1 ) = -17.5

Noted for CC1=C(/C=C/C(C)=C/C=C/C(C)=C/C(=O)Nc2ccc(O)cc2)C(C)(C)CCC1 : its inhibition reads 1.68

Query Cc1cc(N)c2ccccc2[n+]1CCCCCCCCCC[n+]1c(C)cc(N)c2ccccc21 yields inhibition of 147

Memo: CCC(=O)O[C@]1(C(=O)CCl)[C@@H](C)C[C@H]2[C@@H]3CCC4=CC(=O)C=C[C@]4(C)[C@@]3(F)[C@@H](O)C[C@@]21C , reported inhibition: 18.1

The molecule listed as CCCC(=O)NCCc1c2n(c3ccc(OC)cc13)Cc1ccccc1-2 shows inhibition equal to -1.81

The reported value for NCC1OC(O[C@@H]2[C@H](O)C(OC3C(O)C(N)CC(N)C3OC3OC(CO)C(O)C(O)C3N)O[C@@H]2CO)C(N)C(O)C1O (stereo not given in full) in terms of inhibition is 4.9

Entry CCCc1nnc(SCc2ccc(OCC)cc2)n1N ; inhibition = 28.9

Item: c1ccc([C@H]2CN3CCSC3=N2)cc1 | inhibition: -1.39

GET /value?item= CC(C)c1ccc2c(c1)c(SC(C)(C)C)c(CC(C)(C)C(=O)O)n2Cc1ccc(Cl)cc1 &field=inhibition returns 9.82

Record CCCn1c(=O)c2[nH]c(-c3ccc(OCC(=O)NCCN)cc3)nc2n(CCC)c1=O . Reported inhibition: 3.94

For this molecule ( CCCCCCCCCCCCCCC[C@H](O)[C@H](N)CO ), measured inhibition is 38.7

Notebook: CCN(CC)CCOC(=O)c1cc(Cl)c(N)cc1OC , inhibition read as 2.34

The reported value for NCCCCC(=O)O in terms of inhibition is 9.64

inhibition reported for this molecule CC(C)C[C@H](NC(=O)C1OC1C(=O)O)C(=O)NCCCCN=C(N)N (stereo not given in full) : -4.58

// inhibition lookup, molecule = C=C(Br)CN1CCN(CC(=C)Br)CC1 , result: 5.24

inhibition for O=P(O)(c1ccccc1)c1ccccc1O is 28.7

----------
- Assay: endothelial E-selectin expression blockers – imaging, HUVEC, immunofluorescence, MLSMR starter and 10KST1 sets, primary screen (AID 487);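 also: 100% = median nuclei count of all wells on the same plate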
- Condition description: HUVEC TNFalpha-induced E-selectin immunofluorescence imaging, at 2 µM; measured here: cell number, toxicity
Measured property: nuclei count (%)
Please reply with the bare figure in % and do not write the unit itself.

# Molecule, nuclei count (%)
rows = [
    ("CCOC(=O)N1CCN(C(=O)Nc2ccc(Cl)cc2)CC1", 103),
    ("CCC(=O)Nc1ccc(F)c(Cl)c1", 124),
    ("CC(Oc1ccc(Cl)cc1Cl)c1nc(-c2ccc(NC(=O)c3cccnc3)cc2)no1 (stereo unspecified)", 112),
    ("COc1ccc(-c2cc3nc(C)c(CCC(=O)NCc4ccco4)c(C)n3n2)c(OC)c1", 83.7),
    ("Cc1cccc(NC(=O)c2cc3n(n2)C(C(F)(F)F)CC(c2ccc4c(c2)OCO4)N3)c1 (stereo unspecified)", 127),
]

For this molecule ( CC(C)OP(=O)(c1ccc(N(C)C)cc1)C(O)c1ccccc1F (stereo unspecified) ), measured nuclei count is 117
